Taken from patent US20070185176A1.

Biological target: human recombinant heparanase (h-hpa) (Homo sapiens)
Sequence (Q9Y251 158-543 limits assumed): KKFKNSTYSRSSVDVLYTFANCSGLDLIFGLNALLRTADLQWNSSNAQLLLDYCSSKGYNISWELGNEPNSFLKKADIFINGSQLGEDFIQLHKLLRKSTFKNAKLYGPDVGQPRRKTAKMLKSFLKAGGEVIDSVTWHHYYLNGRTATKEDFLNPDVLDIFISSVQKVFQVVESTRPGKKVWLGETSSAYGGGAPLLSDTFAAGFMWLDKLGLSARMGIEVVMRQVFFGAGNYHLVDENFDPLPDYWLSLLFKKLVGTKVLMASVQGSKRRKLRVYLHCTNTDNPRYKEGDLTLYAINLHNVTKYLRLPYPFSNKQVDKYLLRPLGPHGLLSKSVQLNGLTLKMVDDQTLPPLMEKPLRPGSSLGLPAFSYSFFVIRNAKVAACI
Sequence (Q9Y251 36-109 limits assumed): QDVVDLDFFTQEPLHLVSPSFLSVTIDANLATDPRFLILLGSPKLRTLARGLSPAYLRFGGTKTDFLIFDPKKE
Experiment: In vitro dimethylmethylene blue (DMB) assay for heparanase activity
pIC50: −log10 of the molar value.
# binarize pIC50: threshold 6 inclusive, high side Fulfilled, low side Not fulfilled

compound: CCCCCCCCCCC/C=C\CCCCC(=O)Nc1cc(C(=O)O)ccc1Oc1cc(C(=O)O)cc(C(=O)O)c1 [Compound 86]
group: Not fulfilled
--
compound: CCCCCCCCCCCCCCCCCCOc1ccc(S(=O)(=O)O)cc1NC(=O)c1cc(/N=N/c2ccccc2C(=O)O)c2ccccc2c1O [Compound 49]
group: Not fulfilled

Textbook exercise: given the entry CCCCCCCCCCCCCCCCCC(=O)NC1=NN(c2ccc(Oc3ccccc3)c(S(=O)(=O)O)c2)C(=O)C1/N=N/c1cc(C(=O)OC)ccc1O (stereo not shown) [Compound 18] , state whether its pIC50 is greater than or equal to 6.
Fulfilled

Please check the record CCCCCCCCCCCCCCCCCCNC(=O)C1CC(=O)N(c2ccc(Oc3ccc(C(=O)O)cc3)c(S(=O)(=O)O)c2)C1 (stereo not shown) [Compound 107] and state if its pIC50 is at or above 6.
Fulfilled
